Data provenance: PubChem BioAssay (NCI)

Tested on: MOLT-4 leukemia
Test: NCI-60 one-dose screen, 48 h (100 = growth as untreated, 0 = no growth, -100 = all killed)
Conditions: 10 µM unless noted
The panel holds about 83,000 compounds, 20% with a hit somewhere; the sample as a whole holds those more often.
growth vs 20%: at or above is satisfied, below is not satisfied.

>>> df
                                   molecule    target_system            cat
0  Nc1nc2c(c3ncncc13)C(c1cccc(C(F)(F)F)c1)Cc1ncncc1-2 (stereo not given)  MOLT-4 leukemia      satisfied
1  FC(F)(F)c1cccc(-c2[nH]ncc2-c2nnnn2-c2ccccc2)c1  MOLT-4 leukemia      satisfied
2  CCOC(=O)c1cc(-c2ccc(OC)cc2)[nH]c1NNC(=O)CCOC  MOLT-4 leukemia      satisfied
3  Cc1ncc(C(=O)Nc2ccc(CN3CCN(C)CC3)c(C(F)(F)F)c2)cc1C#Cc1cnc(NC2CC2)c2ncccc12  MOLT-4 leukemia  not satisfied
4  COc1cc(-c2nn(-c3ccc(NC(=O)Nc4ccc(Cl)c(Cl)c4)cc3)cc2-c2ccncc2)ccc1Cl  MOLT-4 leukemia  not satisfied
5  COC(=O)c1ccc2[nH]c(O)c(C(=Nc3ccc(N(C)C(=O)CN4CCN(C)CC4)cc3)c3ccc(CCO)cc3)c2c1  MOLT-4 leukemia      satisfied
6  OCCN1CCCN(CCCN2c3ccccc3Sc3ccc(C(F)(F)F)cc32)CC1  MOLT-4 leukemia      satisfied
7                                CC(=O)NCCN  MOLT-4 leukemia      satisfied
8  C/C=C/C/C=C/[C@H](C)C[C@H](O)[C@@H]1C[C@@H]2O[C@H]2/C=C/[C@@H]2OC(C)(C)O[C@H]2/C=C/C[C@H](C)CC(=O)O1  MOLT-4 leukemia      satisfied
9    CCOC(=O)c1ccc2n1CCCc1cnc(NC(C)=O)nc1-2  MOLT-4 leukemia      satisfied
